Listed next: entries and their corresponding pKd.
System: human IgG (human)
Assay: filter binding
Conditions: Double filter binding, 37 C, binding buffer not detailed; selection buffer 20 mM HEPES, 2 mM CaCl2, 0.1 mg/ml BSA, 100-150 mM NaCl, pH 7.5
pKd: −log10 of the molar value.
READOUT: pKd

* GGGAGAGAGGAAGAGGGAUGGGAAAGACCGUUUUUUAAAACGCUCAAUAUACACGACAUAAACGACGACUCGCUGAGAUCGAGA [446 (#3)] | < 6.30
* GGGAGAGAGGAAGAGGGAUGGGAGCCAUGACGAUGUCGUUACGUAGAUGCAGAGACUCCUAACGACGACUCGCUGAGAUCGAGA [411-J] | < 6.30
* GGGAGAGAGGAAGAGGGAUGGGUGCUUCAUAGAAACGCGCGAUCUUCCUGUGCGACGACUCGCUGAGAUCGAGA [RJB#44] | < 6.00

Hello, the source for this data is paper PMC4499151, in case you need it.
